# System: HOP-92 NSCLC
# procedure-text: NCI-60 one-dose screen, 48 h
# conditions-used: 10 µM unless noted
This is part of a sample that, as a whole, favours compounds with a hit. Of some 83,000 tested, about 20% had one in any assay. Calls of active or inactive are those of the source. The calls were made as follows: active = growth percent below 10; inactive = the rest.
Possible outcomes: active, inactive

# compound, label-class
measured = [
    ("COc1cc2c(c(OC)c1OC)CCC(c1cccc(C(=O)Nc3ccc(C#N)cc3)c1)O2 (stereo not given)", "inactive"),
    ("OCCn1cc(-c2nc(-c3c[nH]c4ncccc34)cs2)c2ccccc21", "inactive"),
    ("COc1ccc(/C=C(\\C#N)n2nnc3cc(Cl)ccc32)cc1", "active"),
    ("CNc1nnc2n(-c3ccccc3)c(=O)c3cnn(-c4ccccc4)c3n12", "inactive"),
    ("O=C(CN1CCCCC1)Nc1nc(-c2cc3ccccc3oc2=O)cs1", "inactive"),
    ("Fc1ccc(CNc2c3ccccc3nc3ccccc23)c(F)c1", "active"),
    ("CC(C)c1ccc(C(=O)Nc2nc3ccc(O)c(CN(C)C)c3s2)cc1", "inactive"),
    ("COc1cc(-c2cncn2-c2ccc(-c3nc4ccc(F)cc4s3)cc2)ccc1F", "inactive"),
    ("Cc1ccc2c(n1)C(=O)C(Br)=C(CC(C)C)C2=O", "inactive"),
    ("C=C(C)[C@@H]1CCC[C@]2(COS(=O)(=O)c3ccc(C)cc3)CC[C@]3(C)[C@@H](CC[C@@H]4[C@@]5(C)CCCNC(C)(C)[C@@H]5CC[C@]43C)[C@@H]12", "inactive"),
]

----------
# Test system: LOX IMVI melanoma
# procedure-text: NCI-60 one-dose screen, 48 h (100 = growth as untreated, 0 = no growth, -100 = all killed)
# conditions-used: 10 µM unless noted
About 83,000 compounds went through this panel and 20% of them were active in at least one assay; those are over-represented in the sample as a whole.
Each entry below carries its recorded growth.
quantity: growth (%)

# line-notation, observed-result
data = [
    ("COc1ccc(CNc2c3ccccc3nc3ccccc23)cc1", 20.9),
    ("O=S(=O)(NCCCNc1nccc(-c2c(-c3ccc(F)c(O)c3)nc3occn23)n1)c1ccc(Cl)cc1", 36.2),
    ("COc1ccc(C(=O)N2c3ccccc3Sc3ccccc32)c(OC)c1", 37.8),
    ("Nc1nc2ccccc2c2c(=O)c3cccc(Cl)c3sc12", 90.2),
    ("COc1cc(/C=C/C(=O)c2ccc(F)cc2)ccc1OCCCCOc1ccc(/C=C/C(=O)c2c(C)nc3ccccc3c2C)cc1OC", 90.2),
    ("C=CCc1c(O)c(C(=O)/C=C/c2ccccc2)c(OC)c2ccoc12", 35.2),
    ("Cc1ccc(Nn2c(SCC(=O)Nc3nc(-c4ccccc4)cs3)nc(C)c2C)cc1", 51.9),
    ("COc1ccc(-c2noc(C(=O)O)c2-c2cc(OC)c(OC)c(OC)c2)cc1", 35.2),
    ("O=C(Nc1cccc(-c2ccc(N3CCOCC3)nn2)c1)Nc1cccc(C(F)(F)F)c1", 70.2),
    ("Cn1ccc(=O)c(C(=O)Nc2nsc3ccc([N+](=O)[O-])cc23)c1", 51.3),
]

----------
# Tested on: HOP-92 NSCLC
# procedure-text: NCI-60 one-dose screen, 48 h
# conditions-used: 10 µM unless noted
This is part of a sample that, as a whole, favours compounds with a hit. Of some 83,000 tested, about 20% had one in any assay. Activity calls are given as the source filed them. How the source made its calls: active means growth percent below 10; inactive means the rest.
Possible outcomes: true (1) = active, false (0) = inactive

# compound, label-class
data = [
    ("O=C1/C=C/[C@@H](O)[C@@H]2C[C@@H](O)C[C@H]2/C=C/CCC[C@H](CCc2ccccc2)O1", "true (1)"),
    ("COc1ccccc1NC(=O)N=Nc1c(O)[nH]c2ccccc12", "false (0)"),
    ("CCCCNC(=O)CC1=C(C)/C(=C/c2[nH]c(-c3ccc[nH]3)cc2OC)N=C1C", "true (1)"),
    ("O=C1c2ccccc2-c2c1c1c(=O)[nH]c3ccccc3c1n2Cc1ccccc1", "false (0)"),
    ("c1ccc(Cn2cc3c(c2)-c2oncc2CC3)cc1", "false (0)"),
    ("Nc1cc(C(=O)NC[C@H]2CN(c3ccc(N4CCC(C(=O)O)CC4)cc3)C(=O)O2)ccc1Cl", "false (0)"),
    ("COc1c(C(=O)Nc2ccc(C)c(Br)c2)ccc2ccccc12", "false (0)"),
    ("O=C(Nc1ccccc1)Nc1ncnc2c1ncn2-c1ccc(Cl)cc1", "false (0)"),
    ("CCOC(=O)Cc1cnc(N/N=C(\\C)c2cc3ccccc3o2)s1", "false (0)"),
    ("N#Cc1ccc(O)c(C2=NCC(c3cccc(Oc4ccccc4)c3)O2)c1 (stereo not given)", "false (0)"),
]
